System: Erythrocyte
ASSAY METHOD TEXT: Hemolytic activity in BALB/C mouse erythrocytes incubated for 1 hr by absorbance method
Assay type: ADME, cell-based
Where a SMILES comes first, the peptide text is derived from it.
MEASURED ENDPOINT: MHC10

MOLECULE	DATA VALUE
CC[C@H](C)[C@H](NC(=O)[C@H](CCCNC(=N)N)NC(=O)[C@H](CCCCN)NC(=O)[C@H](CC(C)C)NC(=O)[C@H](CC(C)C)NC(=O)CN)C(=O)N[C@@H](CCCCN)C(=O)N[C@H](C(=O)N[C@@H](CC(C)C)C(=O)N[C@@H](CC(C)C)C(N)=O)[C@@H](C)O [ANOPLIN] (H-GLLKRIKTLL-NH2)	>= 512 uM
CC(C)C[C@H](NC(=O)[C@H](CC(C)C)NC(=O)[C@@H](NC(=O)[C@H](CCCCN)NC(=O)[C@H](C)NC(=O)[C@H](CCCNC(=N)N)NC(=O)[C@H](CCCCN)NC(=O)[C@H](C)NC(=O)[C@H](CC(C)C)NC(=O)CN)[C@@H](C)O)C(N)=O (H-GLAKRAKTLL-NH2)	>= 512 uM
CC(C)C[C@H](NC(=O)[C@H](CC(C)C)NC(=O)[C@@H](NC(=O)[C@H](CCCCN)NC(=O)[C@H](Cc1c[nH]c2ccccc12)NC(=O)[C@H](CCCNC(=N)N)NC(=O)[C@H](CCCCN)NC(=O)[C@H](CC(C)C)NC(=O)[C@H](CC(C)C)NC(=O)CN)[C@@H](C)O)C(N)=O (H-GLLKRWKTLL-NH2)	>= 512 uM
